# target under test: TYK2 kinase (Homo sapiens (Human), UniProt P29597)
# Sequence (P29597 833-1187): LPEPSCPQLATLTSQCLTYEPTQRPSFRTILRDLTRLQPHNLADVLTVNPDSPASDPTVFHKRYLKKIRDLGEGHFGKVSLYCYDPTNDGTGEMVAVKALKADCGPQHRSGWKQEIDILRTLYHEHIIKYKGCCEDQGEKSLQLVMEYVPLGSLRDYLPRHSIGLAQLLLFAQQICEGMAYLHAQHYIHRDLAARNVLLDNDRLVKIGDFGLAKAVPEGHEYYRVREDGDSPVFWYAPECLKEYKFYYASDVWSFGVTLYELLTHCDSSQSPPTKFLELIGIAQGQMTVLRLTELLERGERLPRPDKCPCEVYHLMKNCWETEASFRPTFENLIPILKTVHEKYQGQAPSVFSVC
# experimental protocol: TYK2 kinase inhibition assay (33P-ATP, Reaction Biology Corp.)
# Assay type: biochemical
# setup conditions: substrate AXLtide, 120 min at room temperature, read-out: In Vitro Enzyme IC50 (nM) TYK2
Under this convention, MET denotes IC50 strictly below 10 nM and NOT MET denotes IC50 at or above 10 nM.

# compound structure string, qualitative label
measured = [
    ("CS(=O)(=O)c1ccc(Nc2oc(-c3c(F)cccc3Cl)nc2C(N)=O)cc1", "MET"),
]

Problem: State whether 10 nM exceeds IC50 recorded for NC(=O)c1nc(-c2c(F)cccc2F)oc1Nc1ccc(C(=O)N2CCOCC2)cc1 .
Solution: NOT MET

Problem: For the compound CNCCNC(=O)c1ccc(Nc2oc(-c3c(F)cccc3F)nc2C(N)=O)cc1 , is IC50 under 10 nM?
Solution: NOT MET

Problem: is_below(IC50, 10 nM) for NC(=O)c1nc(-c2c(F)cccc2F)oc1Nc1ccc(C(=O)N2CCC[C@@H]2CO)cc1 ?
Solution: MET

Problem: I'd appreciate it if you could check whether NC(=O)c1nc(-c2c(F)cccc2F)oc1Nc1ccc(C(=O)N[C@H]2CCNC2)cc1 has IC50 smaller than 10 nM.
Solution: NOT MET

Problem: Is 10 nM strictly greater than the compound's reported IC50? compound: NC(=O)c1nc(-c2c(F)cccc2F)oc1Nc1ccc(C(=O)N[C@H]2CCCNC2)cc1
Solution: NOT MET

---

# target under test: JAK2 (Homo sapiens (Human), UniProt O60674)
# Sequence (O60674 809-1132): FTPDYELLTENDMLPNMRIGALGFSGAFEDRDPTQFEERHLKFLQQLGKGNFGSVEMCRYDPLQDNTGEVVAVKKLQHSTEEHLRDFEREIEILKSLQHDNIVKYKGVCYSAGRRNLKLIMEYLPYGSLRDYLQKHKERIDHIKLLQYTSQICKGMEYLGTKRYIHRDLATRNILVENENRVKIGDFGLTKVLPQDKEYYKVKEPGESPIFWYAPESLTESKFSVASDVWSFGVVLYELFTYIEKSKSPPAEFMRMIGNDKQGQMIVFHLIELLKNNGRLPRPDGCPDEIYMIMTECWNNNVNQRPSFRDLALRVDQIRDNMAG
# experimental protocol: JAK2 kinase inhibition assay (33P-ATP, Reaction Biology Corp.)
# Type: biochemical
# setup conditions: substrate pEY, 120 min at room temperature, read-out: In Vitro Enzyme IC50 (nM) JAK2
assay readout: IC50
Please state the value followed by its unit.

# compound structure string, target under test, IC50
records = [
    ("NC(=O)c1nc(-c2c(F)cccc2F)oc1Nc1ccc(C(=O)N2CCOCC2)cc1", "JAK2 (Homo sapiens (Human), UniProt O60674)", "267 nM"),
    ("CNS(=O)(=O)c1ccc(Nc2oc(-c3c(F)cccc3F)nc2C(N)=O)cc1", "JAK2 (Homo sapiens (Human), UniProt O60674)", "109 nM"),
    ("CN(C)C(=O)c1ccc(Nc2oc(-c3c(F)cccc3F)nc2C(N)=O)cc1", "JAK2 (Homo sapiens (Human), UniProt O60674)", "112 nM"),
    ("CNCCCNC(=O)c1ccc(Nc2oc(-c3c(F)cccc3F)nc2C(N)=O)cc1", "JAK2 (Homo sapiens (Human), UniProt O60674)", "338 nM"),
]

Problem: Could you share what IC50 was measured for NC(=O)c1nc(-c2c(F)cccc2F)oc1Nc1ccc(C(=O)N[C@@H]2CCNC2)cc1 , tested on JAK2 (Homo sapiens (Human), UniProt O60674)?
Solution: 292 nM

Problem: Quick check: IC50 on JAK2 (Homo sapiens (Human), UniProt O60674), item NC(=O)c1nc(-c2c(F)cccc2F)oc1Nc1ccc(C(=O)N[C@H]2CCNC2)cc1 ?
Solution: 182 nM

Problem: Quick check: IC50 on JAK2 (Homo sapiens (Human), UniProt O60674), item NC(=O)c1nc(-c2c(F)cccc2F)oc1Nc1ccc(C(=O)NCCCO)cc1 ?
Solution: 119 nM

Problem: JAK2 (Homo sapiens (Human), UniProt O60674) / IC50 / NCCCNC(=O)c1ccc(Nc2oc(-c3c(F)cccc3F)nc2C(N)=O)cc1 : value?
Solution: 297 nM

Problem: Quick check: IC50 on JAK2 (Homo sapiens (Human), UniProt O60674), item NC(=O)c1nc(-c2c(F)cccc2F)oc1Nc1ccc(S(N)(=O)=O)cc1 ?
Solution: 147 nM

The values you see were collected from patent US10882829B2.
